target: Chaperone protein DnaK (Escherichia coli (strain K12)) (UniProt P0A6Y8); assay: binders of DnaK substrate-binding domain, biophysical, NMR, chaperone (AID 1033); settings: Purified DnaK SBD, NMR ligand binding
Sequence (P0A6Y8 whole entry, looked up, the tested form may be a part): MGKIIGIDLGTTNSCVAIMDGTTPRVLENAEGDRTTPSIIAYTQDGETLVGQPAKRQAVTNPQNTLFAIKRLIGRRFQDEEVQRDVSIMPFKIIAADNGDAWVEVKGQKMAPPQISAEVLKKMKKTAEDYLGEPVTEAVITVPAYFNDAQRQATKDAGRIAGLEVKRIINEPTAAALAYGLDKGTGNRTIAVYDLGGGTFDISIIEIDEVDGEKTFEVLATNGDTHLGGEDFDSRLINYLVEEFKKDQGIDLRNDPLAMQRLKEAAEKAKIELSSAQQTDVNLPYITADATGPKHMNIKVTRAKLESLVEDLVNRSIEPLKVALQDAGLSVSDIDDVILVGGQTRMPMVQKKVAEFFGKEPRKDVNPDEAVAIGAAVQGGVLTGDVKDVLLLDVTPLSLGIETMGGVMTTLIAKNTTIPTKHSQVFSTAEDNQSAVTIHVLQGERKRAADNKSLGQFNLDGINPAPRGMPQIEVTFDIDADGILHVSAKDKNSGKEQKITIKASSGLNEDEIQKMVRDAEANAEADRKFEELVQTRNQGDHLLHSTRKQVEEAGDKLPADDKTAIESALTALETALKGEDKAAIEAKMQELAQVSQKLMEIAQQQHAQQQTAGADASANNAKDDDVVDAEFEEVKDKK
Activity calls are given as the source filed them. The rule behind the calls is not given here.
READOUT_LABEL: Kd

Illustrative cases are given below, each with its answer.
>  <MOLECULE>
CCOC(=O)c1snnc1-c1ccccc1

>  <TARGET_UNDER_TEST>
Chaperone protein DnaK (Escherichia coli (strain K12)) (UniProt P0A6Y8)

>  <RECORDED_RESULT>
> 4 mM (inactive)

$$$$
>  <MOLECULE>
Cc1nc2c(=O)[nH]c3ccccc3c2o1

>  <TARGET_UNDER_TEST>
Chaperone protein DnaK (Escherichia coli (strain K12)) (UniProt P0A6Y8)

>  <RECORDED_RESULT>
> 4 mM (inactive)

$$$$

List the reported Kd of each molecule below.
1. CN(C)c1nc(N2CCOCC2)nc(N2CCOCC2)n1
2. CC(=O)c1c(O)cc(O)cc1O
3. Cc1cc(C)nc(Nc2n[nH]c(Cc3ccccc3)n2)n1
4. COc1ccc2c(c1)OCC(Cc1ccc(OC)c(OC)c1)C2=O (configuration not stated)
5. COc1ccc(C[C@H]2NC[C@H](O)[C@H]2OC(C)=O)cc1

Solution:
> 4 mM (inactive)
> 4 mM (inactive)
> 4 mM (inactive)
> 4 mM (inactive)
> 4 mM (inactive)

---

target: Chaperone protein DnaK (Escherichia coli (strain K12)) (UniProt P0A6Y8); assay: binders of DnaK substrate-binding domain, biophysical, NMR, chaperone (AID 1033); conditions: Purified DnaK SBD, NMR ligand binding
Active and inactive are the calls of the source. How the calls were made is not given here.
Hello, when you answer, please use one of the following outcomes: 1 = active, 0 = inactive

Field: example entries. Status: answers known.
>  <MOLECULE>
O=C(Nc1ccc2[nH]ccc2c1)c1cccs1

>  <LABEL_VALUE>
1

$$$$
>  <MOLECULE>
COc1ccc(/C=C2/C(=O)N=C(N)N2C)cc1OC

>  <LABEL_VALUE>
0

$$$$
>  <MOLECULE>
CC(C)(C)c1cc(N)n[nH]1

>  <LABEL_VALUE>
0

$$$$
>  <MOLECULE>
NC(=O)c1ccccc1NC(=O)C1CC1

>  <LABEL_VALUE>
0

$$$$
>  <MOLECULE>
C=C1C(=O)O[C@@H]2C[C@@]3(C)CCC[C@H](C)C3=C[C@H]12

>  <LABEL_VALUE>
0

$$$$

Problem: In this assay, the call recorded for Cc1nc(-c2ccc(C(=O)O)s2)cs1 was what?
Solution: 0

Problem: In this assay, the call recorded for Cc1cc(O)c2c(c1O)C(=O)c1c(O)cc(C)c(O)c1C2=O was what?
Solution: 0

Problem: In this assay, the call recorded for CC1(C)Oc2ccc3ccc(=O)oc3c2CC1O (stereo not drawn) was what?
Solution: 0

Problem: In this assay, the call recorded for O=C(O)CN1CCN(C2CCCC2)CC1 was what?
Solution: 0

Problem: In this assay, the call recorded for Cc1cc(N)n(C2CCOC(C)(C)C2)n1 (stereo not drawn) was what?
Solution: 0

Problem: In this assay, the call recorded for c1cncc(C(N2CCOCC2)N2CCOCC2)c1 was what?
Solution: 0

---

Please provide measured Kd for the entries that follow.
biological target: Chaperone protein DnaK (Escherichia coli (strain K12)) (UniProt P0A6Y8); experiment: binders of DnaK substrate-binding domain, biophysical, NMR, chaperone (AID 1033); settings: Purified DnaK SBD, NMR ligand binding
Calls of active or inactive are those of the source. The rule behind the calls is not given here.

Illustrative cases are given below, each with its answer.
>  <COMPOUND>
Cn1c(=O)n(CC(=O)N2CCOCC2)c2ccccc21

>  <TARGET_UNDER_TEST>
Chaperone protein DnaK (Escherichia coli (strain K12)) (UniProt P0A6Y8)

>  <Kd>
> 4 mM (inactive)

$$$$
>  <COMPOUND>
O=C(O)CCC(=O)c1cccc2ccccc12

>  <TARGET_UNDER_TEST>
Chaperone protein DnaK (Escherichia coli (strain K12)) (UniProt P0A6Y8)

>  <Kd>
> 4 mM (inactive)

$$$$
>  <COMPOUND>
O=c1nc(C(F)(F)F)nc2ccccn12

>  <TARGET_UNDER_TEST>
Chaperone protein DnaK (Escherichia coli (strain K12)) (UniProt P0A6Y8)

>  <Kd>
> 4 mM (inactive)

$$$$
>  <COMPOUND>
Cc1cc(-c2ccc(Cl)cc2)n2nc(N)nc2n1

>  <TARGET_UNDER_TEST>
Chaperone protein DnaK (Escherichia coli (strain K12)) (UniProt P0A6Y8)

>  <Kd>
> 4 mM (inactive)

$$$$
>  <COMPOUND>
NC(=O)CSc1nnc(-c2ccncc2)o1

>  <TARGET_UNDER_TEST>
Chaperone protein DnaK (Escherichia coli (strain K12)) (UniProt P0A6Y8)

>  <Kd>
> 4 mM (inactive)

$$$$
>  <COMPOUND>
CCCCN1C(=O)C2CC/C(=N/O)CC2C1=O (configuration not stated)

>  <TARGET_UNDER_TEST>
Chaperone protein DnaK (Escherichia coli (strain K12)) (UniProt P0A6Y8)

>  <Kd>
> 4 mM (inactive)

$$$$

Problem: Give recorded Kd. CC(=O)N1C(=S)NC(=O)/C1=C\c1cccnc1
Solution: > 4 mM (inactive)
